# test.target: recombinant human XIAP-BIR3 protein (Homo sapiens)
# Construct: recombinant human XIAP-BIR3 protein; purchased Reaction biology APT-11-374
# Sequence (P98170 241-356 limits assumed): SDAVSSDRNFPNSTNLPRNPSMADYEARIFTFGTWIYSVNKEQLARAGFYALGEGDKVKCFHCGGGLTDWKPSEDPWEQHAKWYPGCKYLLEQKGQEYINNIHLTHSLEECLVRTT
# test.protocol: Recombinant human XIAP-BIR3 biochemical assay (HTRF, peptide displacement)
# condition.info: 3.7 nM XIAP-BIR3, 7.6 nM AbuRPF-K(5-Fam)-NH2 peptide, read-out: Protein binding IC50 (nM) XIAP
Structures can show the parent of a compound that is named as a salt.
recorded.metric: IC50 (nM)
Numbers only, in nM.

C[C@@H]1CN(CC(=O)N2c3cc(Cc4ccc(F)cc4)c(C(=O)N4CCN(C)CC4)nc3OC[C@@H]2C)[C@@H](CN2[C@H](C)COC[C@H]2C)CN1	18.1
C[C@@H]1CN(CC(=O)N2c3cc(Cc4ccc(F)cc4)c(OCCO)nc3OC[C@@H]2C)[C@@H](CN2[C@H](C)COC[C@H]2C)CN1	4.4
C[C@@H]1CN(CC(=O)N2CCOc3ncc(Cc4ccc(F)cc4)cc32)[C@@H](CN2C(=O)OC[C@H]2C(F)F)CN1	196

Provide reported IC50 for each item, in the same order as listed.
1. C[C@@H]1CN(CC(=O)N2c3cc(Cc4ccc(F)cc4)cnc3OC[C@@H]2COc2ccccc2)[C@@H](CN2CCOC[C@H]2C)CN1
2. Cc1ccc([C@H]2COc3ncc(Cc4ccc(F)cc4)cc3N2C(=O)CN2C[C@@H](C)NC[C@@H]2CN2CCOC[C@H]2C)cc1
3. C[C@@H]1CN(CC(=O)N2CCOc3ncc(Cc4ccc(F)cc4)cc32)[C@@H](CN2CCOC[C@H]2C)CN1 [Compound 2, formate]
4. C[C@@H]1CN(CC(=O)N2c3cc(Cc4ccc(F)cc4)c(NC(=O)C4CC4)nc3OC[C@@H]2C)[C@@H](CN2[C@H](C)COC[C@H]2C)CN1
5. C[C@@H]1CN(CC(=O)N2c3cc(Cc4ccc(F)cc4)c(NC4CC4)nc3OC[C@@H]2C)[C@@H](CN2[C@H](C)COC[C@H]2C)CN1
6. C[C@@H]1CN(CC(=O)N2c3cc(Cc4ccc(F)cc4)c(C(=O)NCC(F)(F)F)nc3OC[C@@H]2C)[C@@H](CN2[C@H](C)COC[C@H]2C)CN1

Result block:
1: 12; 2: 7.3; 3: 24; 4: 4.4; 5: 11.9; 6: 2.3

For each of the items listed, what is its IC50?
1. C[C@@H]1CN(CC(=O)N2c3cc(Cc4ccc(F)cc4)c(C(=O)N[C@@H]4CCOC4)nc3OC[C@@H]2C)[C@@H](CN2[C@H](C)COC[C@H]2C)CN1
2. C[C@@H]1CN(CC(=O)N2c3cc(Cc4ccc(F)cc4)c(C(=O)NC[C@H]4CCCO4)nc3OC[C@@H]2C)[C@@H](CN2[C@H](C)COC[C@H]2C)CN1
3. COCCOc1nc2c(cc1Cc1ccc(F)cc1)N(C(=O)CN1C[C@@H](C)NC[C@@H]1CN1[C@H](C)COC[C@H]1C)[C@@H](C)CO2

Result block:
3.2
3.3
3.1

* * *

So I've got a bunch of molecules here, and I need their IC50 values.
# test.target: recombinant human cIAP1-BIR3 protein (Homo sapiens, UniProt Q13490)
# Construct: recombinant human cIAP1-BIR3 protein; purchased Reaction biology APT-11-370
# Sequence (Q13490 253-363 limits assumed): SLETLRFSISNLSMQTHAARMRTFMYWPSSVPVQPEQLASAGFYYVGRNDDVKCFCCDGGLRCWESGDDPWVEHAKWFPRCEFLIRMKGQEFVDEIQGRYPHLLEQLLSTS
# test.protocol: Recombinant human c-IAP1-BIR3 biochemical assay (HTRF, peptide displacement)
# condition.info: 1.2 nM cIAP1-BIR3, 3 nM AbuRPF-K(5-Fam)-NH2 peptide, read-out: Protein binding IC50 (nM) c-IAP1
# Description: I. Recombinant human c-IAP1-BIR3 biochemical assay Compounds disclosed herein were tested for blocking of recombinant human cIAP1-BIR3 protein (Cat: APT-11-370, Reaction biology) with its peptide in an assay based on Homogeneous Time Resolved Fluorescence. […] The HTRF signals (ex337 nm, em520 nm/490 nm) were read on BMG PHERAstar FS instrument. […]
One number for each entry, in nM.

C[C@@H]1CN(CC(=O)N2c3cc(Cc4ccc(F)cc4)c(C(=O)NCCN4CCN(C)CC4)nc3OC[C@@H]2C)[C@@H](CN2[C@H](C)COC[C@H]2C)CN1	0.16
C[C@@H]1CN(CC(=O)N2c3cc(Cc4ccc(F)cc4)cnc3OC[C@@H]2COc2ccccc2)[C@@H](CN2CCOC[C@H]2C)CN1	0.11
C[C@@H]1CN(CC(=O)N2c3cc(Cc4ccc(F)cc4)c(C(N)=O)nc3OC[C@@H]2C)[C@@H](CN2CCOC[C@H]2C(F)F)CN1	0.54
C[C@@H]1CN(CC(=O)N2c3cc(Cc4ccc(F)cc4)c(CO)nc3OC[C@@H]2C)[C@@H](CN2CCOC[C@H]2C)CN1	0.3
C[C@@H]1CN(CC(=O)N2c3cc(Cc4ccc(F)cc4)c(C(=O)N[C@@H]4CCOC4)nc3OC[C@@H]2C)[C@@H](CN2[C@H](C)COC[C@H]2C)CN1	0.17

Proceed to the following item.
Query block: Bench note: what IC50 did CC(C)OC[C@H]1COc2ncc(Cc3ccc(F)cc3)cc2N1C(=O)CN1C[C@@H](C)NC[C@@H]1CN1[C@H](C)COC[C@H]1C show?
Result block: 0.15
